Tested on: U2OS
Experiment: Here: values are normalized to the negative (DMSO; defined as 0% autophagy induction) and positive (250nM Torin1; mTOR inhibitor; defined as maximal inducer of autophagy = 100%) control compounds and represented as % of autophagy induction. […] The impact of autophagy induction on cells is complex and depends on the affected target. As such, the magnitude of a phenotype may not be equally mirrored in the %-value of autophagy induction and vice versa. The dynamics of the induction may indicate the mode of activation: e.g. activation via phosphorylation or a signaling cascade may occur fast, while activation via transcription factors may take considerably longer. […] Of note, treatment concentrations may be sub-optimal for specific compounds, leading to false negative annotations.
Format: functional, Homo sapiens
Conditions: Compound Concentration 0.5 uM, Timepoint 60 hours, Culturing Media DMEM, 1 % Penicillin/Streptomycin, 10% Fetal bovin serum Add-On: No, Screening Media Control DMEM, Screening Media Samples DMEM
Measured Metric: autophagy induction (%)
Report only the number, with the unit % understood.

The cases that follow already have their autophagy induction on record.
COc1cc(-n2cnc3cc(-c4ccc(Cl)cc4)sc3c2=O)ccc1OCCN1CCCC1	-2.152
CC(C)C[C@H](NC(=O)N1CCCCCC1)C(=O)N[C@H](Cc1cn(C)c2ccccc12)C(=O)N[C@H](Cc1ccccn1)C(=O)O	-0.6751
CCCCC#Cc1nc(NC)c2ncn([C@@H]3O[C@H](CO)[C@@H](O)[C@H]3O)c2n1	-6.595
FC(F)(F)c1c(N2CCC(c3ccccc3)CC2)ccn2c(CC3CC3)nnc12	-2.905
O=C(Nc1ccc(Cl)cc1)Nc1cccc(-c2cccc(N3CCCC3)n2)c1	1.747

Q: Return autophagy induction measured with U2OS given this compound: COc1ccc(C2(O)OC(=O)C(c3ccc4c(c3)OCO4)=C2Cc2cc(OC)c(OC)c(OC)c2)cc1 (centres undefined)
Ans: -0.8382

Q: Try the compound CCc1cc(C(C)=O)c(O)cc1OCCCCCC(C)(C)c1nn[nH]n1
Ans: 2.676

Q: Try the compound O=C(O)C1CN(Cc2ccc(-c3nc4cc(Cc5ccccc5F)ccc4s3)c(F)c2)C1
Ans: -8.1655

Q: Try the compound Cc1c(P(=S)(c2ccccc2)c2ccccc2)n2ccccc2[n+]1C/C=C/c1ccccc1.[Br-]
Ans: 2.215
